- System: Plasmodium falciparum
- EXPERIMENT_NOTES: Antimalarial activity against blood stage Plasmodium falciparum 3D7 assessed as reduction in parasite growth incubated for 72 hrs by SYBR Green dye based fluorescence assay
- Format: functional, organism-based
Active and inactive are the calls of the source. The rule behind the calls is not given here.
TEST_READOUT: Activity

Below: 5 compounds and their reported Activity.
smiles_record=COc1cc2nccc(Oc3ccc(NC(=O)Nc4cccc(C#N)c4)c(F)c3)c2cc1OC test_readout=Activity endpoint_value=inactive
smiles_record=COc1cc2nccc(Oc3ccc(NC(=O)Nc4cccc(C(=O)N5CCN(C)CC5)c4)c(F)c3)c2cc1OC test_readout=Activity endpoint_value=inactive
smiles_record=COc1cc2nccc(Oc3ccc(NC(=O)Nc4cccc(CN5CCN(C)CC5)c4)c(F)c3)c2cc1OC test_readout=Activity endpoint_value=inactive
smiles_record=COc1cc2nccc(Oc3ccc(NC(=O)Nc4cccc(C(C)C)c4)c(F)c3)c2cc1OC test_readout=Activity endpoint_value=inactive
smiles_record=COc1cccc(NC(=O)Nc2ccc(Oc3ccnc4cc(OC)c(OC)cc34)cc2F)c1 test_readout=Activity endpoint_value=inactive

Entry COc1cc2nccc(Oc3ccc(NC(=O)Nc4ccc(C(=O)N5CCN(C)CC5)c(C(F)(F)F)c4)c(F)c3)c2cc1OC : reported Activity = ?
inactive

Requested field: Activity. Item: COc1cc2nccc(Oc3ccc(NC(=O)Nc4cc(C(F)(F)F)ccc4F)c(F)c3)c2cc1OC
inactive

Reported Activity for COc1cc2nccc(Oc3ccc(NC(=O)Nc4ccc(C(=O)N5CCN(C)CC5)cc4)c(F)c3)c2cc1OC : what is it?
inactive

# query: Activity of entry COc1cc2nccc(Oc3ccc(NC(=O)Nc4ccc(F)cc4F)c(F)c3)c2cc1OC
inactive
